As shown below, each of these binders has a reported inhibition of cAMP production, 100 nM value.
- TESTED SYSTEM: human glucagon receptor (human, UniProt P47871 26-477)
- TEST DESCRIPTION: cell-based or functional assay
Starred links: 1 amine or outer side, 2 acyl side, 3 side chain; linkers in the order of their positions; H or OH if unused. Non-standard residues stand in square brackets, D forms with d. No end group written: not given here. *: point of attachment. NMe2F‑APPA = N-methyl-2-amino-5-(2-fluorophenyl)pentanoic acid, CN([C@@H](CCCc1ccccc1F)C(=O)[*:2])[*:1]; 2,4‑diF‑APPA = 2-amino-5-(2,4-difluorophenyl)pentanoic acid, O=C([C@H](CCCc1ccc(F)cc1F)N[*:1])[*:2]; Bip(2'-Et-4'-OMe) = CCc1cc(OC)ccc1-c1ccc(C[C@H](N)C(=O)O)cc1; Leu(5,5,5,5',5',5'-F6) = N[C@@H](CC(C(F)(F)F)C(F)(F)F)C(=O)O; 2F‑APPA = 2-amino-5-(2-fluorophenyl)pentanoic acid; αMePhe(2-F) = C[C@](N)(Cc1ccccc1F)C(=O)O; NMeBip(OMe) = N-methylated Bip(OMe); hhPhe = N[C@@H](CCCc1ccccc1)C(=O)O; NMeD = CN[C@@H](CC(=O)O)C(=O)O; aThr = C[C@H](O)[C@H](N)C(=O)O; NMeAPPA = not defined here; CNB = not defined here; Aib = CC(C)(N)C(=O)O; Moc = COC(=O)*
Numbers only here, please. The scale is pmol/ml/µg prt.

* HSQGTFTSD[Bip(2'-Et-4'-OMe)][2F‑APPA] [Seq. ID. No. 45: HSQGTFTSD-Bip(OMe)-(2F-APPA)] | 8
* H[Aib][CNB]GTFTSD[Bip(2'-Et-4'-OMe)][2,4‑diF‑APPA] (reading uncertain) [Seq. ID. No. 78: H-Aib-(CNB)-GTFTSD-Bip(OMe)-(2,4-diF-APPA)] | 20
* H[Aib][CNB]GTFTSD[Bip(2'-Et-4'-OMe)][hhPhe] (reading uncertain) [Seq. ID. No. 29: H-Aib-(CNB)-GTFTSD-Bip(OMe)-(APPA)] | 16
* H[Aib][CNB]G[aThr][αMePhe(2-F)][aThr]SD[Bip(2'-Et-4'-OMe)][2F‑APPA] (reading uncertain; also: thioamide bond between residues 10 and 11) [Seq. ID. No. 168: H-Aib-(CNB)-G-T(allo)-(α-Me-2F-Phe)-T(allo)-SD-Bip(OMe)-(C═S)-(2F-APPA)] | 18
* H[Aib][Leu(5,5,5,5',5',5'-F6)]G[aThr][αMePhe(2-F)][aThr]SD[Bip(2'-Et-4'-OMe)][2F‑APPA] (also: thioamide (C═S) bond Z10-Z11) [Seq. ID. No. 218: H-Aib-(Hfl)-G-T(allo)-(α-Me-2F-Phe)-T(allo)-SD-Bip(OMe)-(C═S)-(2F-APPA)] | 5
* Ac-H[Aib]QG[aThr][αMePhe(2-F)][aThr]SD[Bip(2'-Et-4'-OMe)][2F‑APPA] (also: reduced (CH2) bonds between 9-10 and 10-11) [Seq. ID. No. 199: CH3CO-H-Aib-QG-T(allo)-(α-Me-2F-Phe)-T(allo)-SD-(CH2)-Bip(OMe)-(CH2)-(2F-APPA)] | 0
* H[Aib][CNB]G[aThr][αMePhe(2-F)][aThr]SD[Bip(2'-Et-4'-OMe)][hhPhe] (reading uncertain) [Seq. ID. No. 114: H-Aib-(CNB)-G-T(allo)-(α-Me-2F-Phe)-T(allo)-SD-Bip(OMe)-(APPA)] | 0
* H[Aib][CNB]G[aThr][αMePhe(2-F)][aThr]SD[Bip(2'-Et-4'-OMe)][2F‑APPA] (reading uncertain) [Seq. ID. No. 116: H-Aib-(CNB)-G-T(allo)-(α-Me-2F-Phe)-T(allo)-SD-Bip(OMe)-(2F-APPA)] | 0

response.value for Moc-H[Aib]QG[aThr][αMePhe(2-F)][aThr]S[NMeD][NMeBip(OMe)][NMeAPPA] (reading uncertain) (field: inhibition of cAMP production, 100 nM) = 6

response.value for H[Aib][CNB]G[aThr][αMePhe(2-F)][aThr]S[NMeD][NMeBip(OMe)][NMe2F‑APPA] (reading uncertain) (field: inhibition of cAMP production, 100 nM) = 0

response.value for H[Aib][CNB]G[aThr][αMePhe(2-F)][aThr]SD[Bip(2'-Et-4'-OMe)][NMeAPPA] (reading uncertain) [Seq. ID. No. 130: H-Aib-(CNB)-G-T(allo)-(α-Me-2F-Phe)-T(allo)-SD-Bip(OMe)-((NMe)(APPA))] (field: inhibition of cAMP production, 100 nM) = 1
